molecular target: hemoglobin (Homo sapiens, UniProt P68871+P69905); assay: Stability of hemoglobin in samples preserved at 37° C. in preservation solution containing no haptoglobin, Hb measured by latex agglutination method (Examples 8, 9 and Table 10); settings: Feces 2; 38 h at 37° C.; no phenylboronic acid, sugar 100 mmol/L
Sequence (P69905 2-142): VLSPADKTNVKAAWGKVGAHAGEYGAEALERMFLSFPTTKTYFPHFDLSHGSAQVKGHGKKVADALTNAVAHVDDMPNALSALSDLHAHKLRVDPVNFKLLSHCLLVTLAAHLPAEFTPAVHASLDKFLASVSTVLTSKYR
Sequence (P68871 2-147): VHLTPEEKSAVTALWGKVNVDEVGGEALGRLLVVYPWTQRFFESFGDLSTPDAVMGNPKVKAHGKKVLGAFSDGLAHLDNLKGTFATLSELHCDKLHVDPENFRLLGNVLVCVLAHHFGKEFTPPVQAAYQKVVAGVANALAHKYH
measuredEndpoint: Hb concentration (µg/L)
One number for each entry, in µg/L.

OC[C@H]1O[C@@](CO)(O[C@H]2O[C@H](CO)[C@@H](O)[C@H](O)[C@H]2O)[C@@H](O)[C@@H]1O : 3

Field: Hb concentration. Fill in for each record below.
1. O=C(CO)[C@@H](O)[C@H](O)[C@H](O)CO
2. OC[C@@H](O)[C@@H](O)[C@H](O)[C@@H](O)CO
3. OC[C@@H](O)[C@@H](O)[C@H](O)[C@H](O)CO
4. OC[C@H]1O[C@H](O[C@H]2O[C@H](CO)[C@@H](O)[C@H](O)[C@H]2O)[C@H](O)[C@@H](O)[C@@H]1O

1: 1; 2: 0; 3: 1; 4: 1

====

I'd be grateful if you could share measured Recovery ratio with respect to Hb concentration after 0 days for these entries.
test system: hemoglobin-haptoglobin complex; experiment: Stability of hemoglobin (as hemoglobin-haptoglobin complex) in samples preserved at 37° C. in preservation solution containing 1 unit/L haptoglobin, Hb measured by latex agglutination method (Examples 1 to 7); parameters: species or system human; settings: Feces 3; sugar 100 mmol/L, no phenylboronic acid; 37° C., 21 days
Give bare numbers, in %.

Examples from the recorded data:
O=C(CO)[C@@H](O)[C@H](O)[C@H](O)CO : 15
OC[C@@H](O)[C@@H](O)[C@H](O)[C@@H](O)CO : 20
OC[C@H]1O[C@H](O[C@H]2O[C@H](CO)[C@@H](O)[C@H](O)[C@H]2O)[C@H](O)[C@@H](O)[C@@H]1O : 18

Could you now consider this next molecule?
So what Recovery ratio with respect to Hb concentration after 0 days did `OC[C@H]1O[C@@](CO)(O[C@H]2O[C@H](CO)[C@@H](O)[C@H](O)[C@H]2O)[C@@H](O)[C@@H]1O` get with hemoglobin-haptoglobin complex?
15

====

tested on: hemoglobin-haptoglobin complex; experiment: Stability of hemoglobin (as hemoglobin-haptoglobin complex) in samples preserved at 37° C. in preservation solution containing 1 unit/L haptoglobin, Hb measured by latex agglutination method (Examples 1 to 7); set-up: species or system human; conditions: Feces 1; sugar 100 mmol/L, no phenylboronic acid; 37° C., 0 days
I'd be grateful if you could share measured Hb concentration for these entries.
Give bare numbers, in µg/L.

Examples from the recorded data:
O=C(CO)[C@@H](O)[C@H](O)[C@H](O)CO : 285
OC[C@@H](O)[C@@H](O)[C@H](O)[C@@H](O)CO : 283
OC[C@H]1O[C@H](O[C@H]2O[C@H](CO)[C@@H](O)[C@H](O)[C@H]2O)[C@H](O)[C@@H](O)[C@@H]1O : 266
OC[C@@H](O)[C@@H](O)[C@H](O)[C@H](O)CO : 276

Could you now consider this next compound?
Requested field: Hb concentration. Item: `OC[C@H]1O[C@@](CO)(O[C@H]2O[C@H](CO)[C@@H](O)[C@H](O)[C@H]2O)[C@@H](O)[C@@H]1O`
264

Value source: patent US12215140B2
